Reference for the values: patent US4490388A

# STUDY_TARGET: C1s (Homo sapiens)
# Sequence (P09871 438-688 limits assumed): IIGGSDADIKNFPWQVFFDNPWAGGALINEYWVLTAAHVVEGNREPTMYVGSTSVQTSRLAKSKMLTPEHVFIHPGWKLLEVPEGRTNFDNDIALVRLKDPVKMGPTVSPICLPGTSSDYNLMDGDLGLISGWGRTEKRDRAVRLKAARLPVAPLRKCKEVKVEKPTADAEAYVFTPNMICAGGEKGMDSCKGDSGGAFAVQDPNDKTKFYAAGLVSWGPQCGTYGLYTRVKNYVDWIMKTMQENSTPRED
# Sequence (P09871 16-437 partner limits assumed): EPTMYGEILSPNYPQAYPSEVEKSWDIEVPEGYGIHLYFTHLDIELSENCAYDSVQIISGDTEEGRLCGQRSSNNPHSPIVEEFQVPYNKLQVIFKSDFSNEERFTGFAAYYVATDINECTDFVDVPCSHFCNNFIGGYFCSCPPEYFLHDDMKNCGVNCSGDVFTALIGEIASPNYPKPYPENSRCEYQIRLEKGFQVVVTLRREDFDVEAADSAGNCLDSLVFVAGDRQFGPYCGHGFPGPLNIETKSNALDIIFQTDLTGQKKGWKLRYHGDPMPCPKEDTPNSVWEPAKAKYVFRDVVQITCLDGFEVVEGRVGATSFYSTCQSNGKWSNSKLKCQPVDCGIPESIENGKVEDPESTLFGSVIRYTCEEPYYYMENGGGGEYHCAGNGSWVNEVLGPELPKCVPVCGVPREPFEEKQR
# PROTOCOL_NOTES: Anti-C1 esterase activity, C1s (hydrolysis of ATEE)
# Type: biochemical
# DETAILS: molar concentration inhibiting 50% of ATEE hydrolysis; read-out: Anti-C1 activity, C1s id50

SMILES_REPR | UNIT_OF_MEASUREMENT | IC50
N=C(N)C=Cc1ccc(OC(=O)c2ccc(NC(=N)N)cc2)cc1 | nM | 300

* * *

# Test system: complement
# PROTOCOL_NOTES: Inhibition of complement mediated hemolysis
# Type: cell-based
# DETAILS: read-out: Inhibition of complement mediated hemolysis (%)

COMPOUND | inhibition at 10 µM / %
N=C(N)C=Cc1ccc(OC(=O)C=Cc2ccccc2Cl)cc1 | 3
Cc1ccc(C(=O)Oc2ccc(C=CC(=N)N)cc2)cc1C | 88
N=C(N)C=Cc1ccc(OC(=O)Cc2ccccc2)cc1 [Compound 13, 4-(β-amidinoethenyl)phenyl phenylacetate] | 31
